# tgt: T1, sIL-6R (soluble IL-6 receptor; SBH Sciences) (human, UniProt P08887 20-365)
# T1 construct: also called human IL-6R
# T1 sequence: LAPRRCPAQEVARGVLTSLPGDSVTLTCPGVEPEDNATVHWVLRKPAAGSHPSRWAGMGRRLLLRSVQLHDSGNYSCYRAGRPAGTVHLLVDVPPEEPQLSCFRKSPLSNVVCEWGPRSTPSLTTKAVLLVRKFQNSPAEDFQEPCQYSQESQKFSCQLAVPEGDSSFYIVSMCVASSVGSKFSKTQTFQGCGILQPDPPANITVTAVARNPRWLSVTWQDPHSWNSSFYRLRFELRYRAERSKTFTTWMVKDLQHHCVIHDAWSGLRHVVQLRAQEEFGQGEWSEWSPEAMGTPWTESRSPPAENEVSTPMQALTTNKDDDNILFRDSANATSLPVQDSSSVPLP
# protocol_description: SPR (BIAcore 3000), antibody on chip, sIL-6R analyte, 25 C
# Protocol: All SPR measurements were performed on a BIAcore 3000 instrument (GE Biosciences, Piscataway, N.J.). BIAcore Software-BIAcore 3000 Control Software V3.2 was used for the operation and control of the BIAcore 3000 instrument. […] Data was analyzed by using the Kinetics Wizard and the manual fitting programs that are both included with the BiaEvaluation Software V4.1.
experimental_readout: kon (M⁻¹ s⁻¹)
Your answer should be a plain number; it is taken to be in M⁻¹ s⁻¹.

binder	experimental_readout	experimental_result
16# (antibody, human IgG1, kappa, V domains shown, also called Sample # 16) VH: QVQLQESGPGLVRPSQTLSLTCTVSGYSITSDHAWSWVRQPPGRGLEWIGFISYSGITTYNPSLKSRVTMLRDTSKNQFSLRLSSVTAADTAVYYCARSLARITAMDYWGQGSLVTVSS VL: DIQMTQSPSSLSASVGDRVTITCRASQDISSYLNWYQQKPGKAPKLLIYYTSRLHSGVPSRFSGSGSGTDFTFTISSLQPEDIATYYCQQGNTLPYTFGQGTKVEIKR	kon	336000

# context switch: different binder, same kon
Input 45# (antibody, human IgG1, kappa, V domains shown, also called Sample # 45) VH: QVQLQESGPGLVRPSQTLSLTCTVSGYSITSDHAWSWVRQPPGRGLEWIGYISYSGITTYNPSLKSRVTMLRDTSKNQFSLRLSSVTAADTAVYYCARTLARTTAMDYWGQGSLVTVSS VL: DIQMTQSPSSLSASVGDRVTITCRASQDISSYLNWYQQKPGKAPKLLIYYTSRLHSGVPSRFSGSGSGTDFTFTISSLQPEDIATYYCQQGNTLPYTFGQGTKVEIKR . Output kon: 175000

Data provenance is patent US20190315854A1.
